assay: amyloid nucleation score (Sup35N fusion, yeast selection) (log enrichment); library NNK3; higher = more nucleation; inactive = no reads after selection;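 note: zero at mode of non-aggregating sequences after 7 days selection at 30°C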

- orderedResidues: "HIMSEGHSLAMGCTCSNNYP"
  amyloid nucleation score: "inactive"
- orderedResidues: "LIACSHSRNT"
  amyloid nucleation score: "inactive"
- orderedResidues: "VYQGMYNKSAYC"
  amyloid nucleation score: "inactive"

----------
assay: amyloid nucleation score (Sup35N fusion, yeast selection) (log enrichment); library NNK3; higher = more nucleation; inactive = no reads after selection
assayReadout: amyloid nucleation score

Previously resolved entries follow.
- substance: "KGETEPYKDSMLQKLTGQLQ"
  observedMeasurement: "inactive"
- substance: "HQKKMRFALR"
  observedMeasurement: "inactive"
- substance: "EKANLLIWDFKKDMLRTVGG"
  observedMeasurement: "inactive"
- substance: "FYYDRVTLRGNTNLGDLMHG"
  observedMeasurement: 1.69
- substance: "GYNICWTPWYAVLDGVTKML"
  observedMeasurement: "inactive"
- substance: "DGRCKMLPVESGGAC"
  observedMeasurement: "inactive"

Recall and state the measured amyloid nucleation score for `GSMTFNYTLEGLNYHNDTKE` .
inactive

Recall and state the measured amyloid nucleation score for `GILCCAL` .
inactive

Recall and state the measured amyloid nucleation score for `SWTSVSFRRMLMDSSR` .
inactive

Recall and state the measured amyloid nucleation score for `WHSWAFGTGCGSRTFEG` .
0.526

Recall and state the measured amyloid nucleation score for `AIMLVSLC` .
inactive

Recall and state the measured amyloid nucleation score for `FLGGRTLTSLPE` .
inactive

Recall and state the measured amyloid nucleation score for `VYSLFKVELISILGRMKITK` .
inactive

Recall and state the measured amyloid nucleation score for `SADQSCYSPHFGGQRDRRWL` .
inactive

Recall and state the measured amyloid nucleation score for `TYWVGWML` .
inactive

Recall and state the measured amyloid nucleation score for `YHCAFVSINSECMVDGLTLC` .
0.883

Recall and state the measured amyloid nucleation score for `WSNSCYEC` .
inactive

Recall and state the measured amyloid nucleation score for `CCCTNDMWTTGPNCS` .
-0.432

Recall and state the measured amyloid nucleation score for `YGMSTG` .
inactive

Recall and state the measured amyloid nucleation score for `NDGFMDVVNTSGSNLCMARN` .
inactive
